experiment: physchem; conditions: buffer, pH 7.4
Give measured solubility for each item. Keep answers brief.

Which solubility value belongs to N#CC1(NC(=O)[C@@H]2CCCC[C@H]2C(=O)N2CCN(c3nc4cnccc4s3)CC2)CC1 ?
> 1500 µM

Which solubility value belongs to N#CC1(NC(=O)[C@@H]2CCCC[C@H]2C(=O)N2CCN(c3nc4ncccc4s3)CC2)CC1 ?
> 2000 µM

Which solubility value belongs to N#CC1(NC(=O)[C@@H]2CCCC[C@H]2C(=O)N2CCN(c3nc4ccncc4s3)CC2)CC1 ?
> 1600 µM

Which solubility value belongs to N#CC1(NC(=O)[C@@H]2CCCC[C@H]2C(=O)N2CCN(c3nc4c(s3)COCC4)CC2)CC1 ?
> 3600 µM
